# Assay info: reduced viability of SK-BR-3 breast cancer cells – cell-based, 24 h, human, pilot screen (AID 572);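 note: compound exposure lasted between 18 and 24 h rather than exactly 24 h; 100% = carrier-treated control wells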
# Test context: SK-BR-3 viability, CellTiter-Glo luminescence, at 10 µM, stronger effect = lower value

| Molecule | viability [%] |
| --- | --- |
| O=C(CC1Oc2ccc(Cl)cc2NC1=O)NC1CCCCCC1 (stereo unspecified) | 92.5 |
| CC1(C)CC(=O)c2cnc(NC(=O)Cc3ccc(Cl)cc3)nc2C1 | 71.5 |
| COC(=O)CSc1nc2nc(C)cc(C)n2n1 | 99 |
| Cc1cccnc1-n1c(CCN2C(=O)c3ccccc3C2=O)nc2ccccc2c1=O | 89.5 |
| COc1ccc(S(=O)(=O)N(CC(=O)N2CCN(c3ccccc3OC)CC2)c2ccccc2)cc1 | 74 |
| COc1cc(C(=O)NCCc2ccc3c(c2)OCCO3)ccc1OCC(=O)N1CCOCC1 | 100 |
| O=C(OCn1nnc2ccccc2c1=O)c1cc2ccccc2o1 | 88 |
| Cc1cc(NC(=O)COc2cccc(C)c2C)no1 | 96 |
| Fc1ccc(-c2nnc3ccc(N4CCCC4)nn23)cc1 | 80 |
| O=C(c1cnc2n(c1=O)CCS2)N1CCc2ccccc21 | 99.5 |
| CCOc1ccc(-c2nnc3sc(-c4c(OC)cccc4OC)nn23)cc1 | 126 |
